target: UniProt P34896
Sequence (P34896 2-483): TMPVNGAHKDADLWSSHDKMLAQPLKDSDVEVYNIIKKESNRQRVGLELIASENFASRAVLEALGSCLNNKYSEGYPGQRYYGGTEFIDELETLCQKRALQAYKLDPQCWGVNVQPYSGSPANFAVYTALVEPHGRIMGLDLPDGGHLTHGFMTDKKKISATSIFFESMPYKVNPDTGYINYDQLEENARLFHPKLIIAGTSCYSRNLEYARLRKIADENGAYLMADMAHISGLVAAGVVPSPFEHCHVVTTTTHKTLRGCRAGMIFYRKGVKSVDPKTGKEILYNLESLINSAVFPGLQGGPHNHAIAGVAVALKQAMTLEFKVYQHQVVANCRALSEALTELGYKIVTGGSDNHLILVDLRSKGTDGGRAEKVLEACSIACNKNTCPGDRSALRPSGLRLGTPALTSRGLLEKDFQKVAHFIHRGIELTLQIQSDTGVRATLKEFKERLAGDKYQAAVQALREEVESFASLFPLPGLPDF
ASSAY_METRIC: pKd
By convention, pKd is the negative base-10 log of a molar concentration.

Assay UniProt P34896, sample CC1(C)[C@@H](O)CC[C@]2(C)[C@H]3C(=O)C=C4[C@@H]5C[C@@](C)(C(=O)O)CC[C@]5(C)CC[C@@]4(C)[C@]3(C)CC[C@@H]12 [GA, Glycyrrhetinic acid] , pKd read: 5.62

====

target: serine hydroxymethyltransferase 2 (SHMT2) (Homo sapiens); test: SPR; type: binding
Sequence (P34897 22-504 limits assumed): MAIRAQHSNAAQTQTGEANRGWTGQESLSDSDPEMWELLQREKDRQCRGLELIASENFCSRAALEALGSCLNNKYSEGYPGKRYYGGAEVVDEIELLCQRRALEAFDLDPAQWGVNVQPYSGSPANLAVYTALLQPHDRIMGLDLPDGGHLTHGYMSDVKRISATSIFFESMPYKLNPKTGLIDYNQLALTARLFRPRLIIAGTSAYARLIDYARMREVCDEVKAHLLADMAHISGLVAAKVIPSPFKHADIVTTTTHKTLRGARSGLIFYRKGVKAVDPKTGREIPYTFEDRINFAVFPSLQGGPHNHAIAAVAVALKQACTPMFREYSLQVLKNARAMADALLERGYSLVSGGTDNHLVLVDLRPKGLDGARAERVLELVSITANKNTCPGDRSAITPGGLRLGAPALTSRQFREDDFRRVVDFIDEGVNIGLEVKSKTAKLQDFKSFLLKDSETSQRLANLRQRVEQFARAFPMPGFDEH
ASSAY_METRIC: pKd
Reminder that pKd is minus the log10 of a molar concentration.

Measured pKd, `CC1(C)[C@@H](O)CC[C@]2(C)[C@H]3C(=O)C=C4[C@@H]5C[C@@](C)(C(=O)O)CC[C@]5(C)CC[C@@]4(C)[C@]3(C)CC[C@@H]12` : 5.54

Where do the numbers come from? From paper PMC9117551.
